Value source: ChEMBL document CHEMBL1201862

# Test system: A549
# protocol.text: NCI tumour cell line growth inhibition, 48 h
Calls of active or inactive are those of the source. No stated cut-off is given here; in the data, active = GI50 up to about 1.1 µM and inactive = higher.
Outcomes you can answer with include only these: true (active), false (inactive)

Observe how each entry below is paired with its result.
>  <molecule>
COC1C(O)C(C)OC(OC2C(Oc3cccc4c(O)c5c(=O)oc6ccc(C)c7c(=O)oc(c34)c5c67)OC(C)C3O[C@H](c4ccccc4)OC32)C1O (stereo partly specified)

>  <label.class>
true

$$$$
>  <molecule>
CC(C)(C)c1cc(OCc2nnc3sc(Cc4ccccc4)nn23)c(Cl)cc1OCc1nnc2sc(Cc3ccccc3)nn12

>  <label.class>
false

$$$$
>  <molecule>
COC(=O)[C@@]12C=CC(=O)[C@H]3C[C@@H](C(C(C)C)C1)[C@]32OC (stereo partly specified)

>  <label.class>
false

$$$$
>  <molecule>
C/C(=N/NC(=O)C[n+]1ccccc1)C(CN(CC(C)C)CC(C)C)C(=O)Nc1ccc(C)cc1C (stereo unspecified)

>  <label.class>
false

$$$$
>  <molecule>
CCN(CC)c1c(C(=O)/C=C/c2ccccc2)c(-c2ccccc2)nn(C)c1=O

>  <label.class>
false

$$$$
>  <molecule>
O=C(O)c1cc(C(=O)O)nc(C(=O)O)c1

>  <label.class>
false

$$$$
>  <molecule>
N#Cc1nc(-c2cc([N+](=O)[O-])cc([N+](=O)[O-])c2)oc1N

>  <label.class>
false

$$$$
>  <molecule>
CC(C)c1cccc(C(C)C)c1NC(=O)/C(Cc1nc2ccc(Cl)cc2nc1O)=N\NC(=O)C[N+](C)(C)C

>  <label.class>
false

$$$$

Record lookup: outcome of this test for "COc1cc(/C=C/c2ccc(Br)cc2)cc(OC)c1OC" ?
false

Repeat with CCOP(=O)(OCC)C(N)Cc1ccc(OC)c(OC)c1 (stereo unspecified)
false

Quick one: "CN(C)c1nc2oc(-c3ccccc3)c(-c3ccccc3)c2c2nnnn12"
false

What about this molecule? C=C1CC(COc2ccc3c(C)c(C)c(=O)oc3c2C)(c2ccccc2)OC1=O (stereo unspecified)
false

----------
Assignment: determine reported GI50 for the given compounds.
# Tested on: UACC-62
# protocol.text: NCI tumour cell line growth inhibition, 48 h
Active and inactive are the calls of the source. No stated cut-off is given here; in the data, active = GI50 up to about 1.1 µM and inactive = higher.

>  <compound>
CCC(CS(=O)(=O)O)[N+](=O)[O-] (stereo unspecified)

>  <assay.system>
UACC-62

>  <GI50>
> 100 µM (inactive)

$$$$
>  <compound>
COc1ccc(N2C(=O)CSC2c2cc(OC)c(OC)c(OC)c2)cc1 (stereo unspecified)

>  <assay.system>
UACC-62

>  <GI50>
4.71 µM (inactive)

$$$$
>  <compound>
CC(=O)NNc1nc(C)c(C(/C=C/c2ccc([N+](=O)[O-])cc2)=N/N)s1

>  <assay.system>
UACC-62

>  <GI50>
> 100 µM (inactive)

$$$$
>  <compound>
NC(=O)COC(=O)c1c(Cl)nc2sccn12

>  <assay.system>
UACC-62

>  <GI50>
> 100 µM (inactive)

$$$$
>  <compound>
Nc1nc(O)c2nc(CNc3ccc(C(=O)NC(CCC(=O)O)C(=O)O)cc3)cnc2n1 (stereo unspecified)

>  <assay.system>
UACC-62

>  <GI50>
> 100 µM (inactive)

$$$$

Please find the next compound below.
Which value of GI50 has been reported for "CC(=O)OCc1c(C)c2ccccc2n1C(C)=O" in the records?
36.3 µM (inactive)

----------
# Tested on: SNB-19
# protocol.text: NCI tumour cell line growth inhibition, 48 h
The source made the active and inactive calls. No stated cut-off is given here; in the data, active = GI50 up to about 1.1 µM and inactive = higher.
Give GI50 for every item shown.

>  <compound>
COc1ccc(/C=C2/S/C(=N\c3ccccc3)N(NC(=O)Cc3ccccc3)C2=O)cc1

>  <measured>
> 100 µM (inactive)

$$$$
>  <compound>
Cc1ccc2nc(Cl)c(/C=N/N3C(=O)/C(=C/c4cccc([N+](=O)[O-])c4)N=C3c3ccccc3)cc2c1

>  <measured>
> 100 µM (inactive)

$$$$

Please state, for each entry, its recorded GI50.
1. OCC12C3C4C5C3C1C5C42 (stereo not drawn)
2. Cc1cc(C)c(O)c(CN2CCN(C(C)C)CCN(C(C)C)CC2)c1
3. COC1CC(OC(=O)c2ccccc2)C(OC(=O)c2ccccc2)C(C)O1 (stereo not drawn)

["> 100 µM (inactive)", "63.1 µM (inactive)", "> 100 µM (inactive)"]

Would you be so kind as to report GI50 for each listed record?
1. CC1=C2C3OC(=O)C(C)C3CCC2(C)C=C/C1=N\c1ccccc1 (stereo not drawn)
2. C=CCc1cc2cccc(OC)c2oc1=O
3. Clc1cc(OCC23CC4CC(CC(C4)C2)C3)nc(OCC23CC4CC(CC(C4)C2)C3)n1
4. CC(C)=NOC(=O)Nc1cccc2c1OCO2
5. CN(C)c1ccc2nc3c(C(=O)O)cc(O)c(O)c3[o+]c2c1
6. Cc1n(Cc2ccccc2)c2c([n+]1C)C(=O)c1ccccc1C2=O
7. CCN(CC)Cc1cc(Nc2c3ccccc3nc3c4ccccc4n(C)c23)ccc1O
8. COc1c(O)c2ccccc2c2cc(O)ccc12

1: > 100 µM (inactive); 2: > 100 µM (inactive); 3: > 100 µM (inactive); 4: > 100 µM (inactive); 5: 28.7 µM (inactive); 6: 0.0581 µM (active); 7: 16.7 µM (inactive); 8: 13.6 µM (inactive)

----------
Field: GI50. Provide a value for each of the molecules that follow.
# Test system: ACHN
# protocol.text: NCI tumour cell line growth inhibition, 48 h
The source made the active and inactive calls. Rule as the data show it: active = GI50 up to about 1.1 µM and inactive = higher.

A selection of reference data follows.
>  <molecule>
C#CC(C)(C)OCCCCOc1cc(O)c2c(=O)c3ccccc3n(C)c2c1

>  <GI50>
> 100 µM (inactive)

$$$$
>  <molecule>
COC(=O)CN1SC2(SC13C(C)(C)C(=O)C3(C)C)C(C)(C)C(=O)C2(C)C

>  <GI50>
> 100 µM (inactive)

$$$$
>  <molecule>
O=C1c2cccc3cccc(c23)C(=O)N1CCCN1CCN(CCCN2C(=O)c3cccc4cccc(c34)C2=O)CC1

>  <GI50>
> 100 µM (inactive)

$$$$
>  <molecule>
CCOC(=O)C(=O)Nc1ccccc1OCC

>  <GI50>
> 100 µM (inactive)

$$$$
>  <molecule>
C[C@]12CC[C@H](O)CC1=CC[C@@H]1[C@@H]2CC[C@]2(C)C(=N/O)/C(=C/c3ccc([N+](=O)[O-])cc3)C[C@@H]12

>  <GI50>
4.13 µM (inactive)

$$$$

Batch request: GI50 per item, same order as input.
1. COC(=O)c1ccccc1C1CN=NC12Cc1c(C)ccc(C)c1C2=O (centres undefined)
2. CCC(CC)C(=O)OC[n+]1cccc(-c2c(COC(=O)NC(C)C)c(COC(=O)NC(C)C)c3n2CCC3)c1
3. Clc1cc(OCC23CC4CC(CC(C4)C2)C3)nc(OCC23CC4CC(CC(C4)C2)C3)n1

1. > 100 µM (inactive)
2. 40.8 µM (inactive)
3. > 100 µM (inactive)

----------
# System: OVCAR-3
# protocol.text: NCI tumour cell line growth inhibition, 48 h
The source made the active and inactive calls. No stated cut-off is given here; in the data, active = GI50 up to about 1.1 µM and inactive = higher.
Assignment: determine reported GI50 for the given compounds.

>  <compound>
CC(O)CCC(=O)c1ccoc1 (stereo not drawn)

>  <GI50>
3610 µM (inactive)

$$$$
>  <compound>
COC(=O)C1=C(OC(=O)/C(=C/c2ccccc2)c2ccc(Cl)cc2)C(C(=O)OC)[C@@]2(O)[C@@H](C(=O)OC)[C@H](C)C[C@@H]1[C@@H]2C(=O)OC (stereo partly drawn)

>  <GI50>
> 100 µM (inactive)

$$$$
>  <compound>
Cn1c(=O)nc2n(-c3ccc(Cl)cc3)c3cc(Cl)ccc3nc-2c1=O

>  <GI50>
1.95 µM (inactive)

$$$$

Provide GI50 values for the following items, in order.
1. CC1CC(N)=Nc2ccccc2N1 (stereo not drawn)
2. O=C1CCC2(c3ccccc3)Nc3ccccc3N12 (stereo not drawn)
3. CCN(CC)CCCN(c1cc(OC)cc2nccnc12)S(=O)(=O)c1ccc(C)cc1
4. O=C1CSC(c2cc3cc(Br)ccc3nc2Cl)N1c1ccc(Cl)cc1 (stereo not drawn)
5. Clc1ccc(CCNCCNC2(c3cc4ccccc4s3)CCCCC2)cc1Cl

> 100 µM (inactive)
> 100 µM (inactive)
> 100 µM (inactive)
16.7 µM (inactive)
1.45 µM (inactive)

Parameters: items (list). Returns: GI50 for each item.
1. O=C1c2ccccc2N(O)C1(c1ccccc1)C1CCCC=C1N1CCOCC1 (stereo not drawn)
2. O=S(=O)(O)c1ccc2c(/N=N/c3cccc4ccccc34)c(O)ccc2c1

["> 100 µM (inactive)", "> 100 µM (inactive)"]

----------
# Test system: RXF 393
# protocol.text: NCI tumour cell line growth inhibition, 48 h
Active and inactive are the calls of the source. Rule as the data show it: active = GI50 up to about 1.1 µM and inactive = higher.
Bench note: report the call from active, inactive

Completed entries (count: 2):
>  <compound>
Cn1cnc([N+](=O)[O-])c1Sc1nc(N)nc2c1ncn2C1OC(CO)C(O)C1O (stereo not drawn)

>  <label.class>
inactive

$$$$
>  <compound>
COc1nc(C(=O)O)c(Cl)c(OC)c1Cl

>  <label.class>
inactive

$$$$

Status in this test for CC(=O)N1c2ccccc2C23CCN(C)CC4C(C)OCC(C4CC2=O)C13 (stereo not drawn) ?
inactive

How about Oc1ccc2c3c1OC1c4[nH]c5c(c4CC4(O)C(C2)N(CC2CC2)CC[C@]314)CC1(O)C2Cc3ccc(O)c4c3[C@@]1(CCN2CC1CC1)C5O4 (stereo partly drawn) ?
inactive

Likewise for "CC(=O)NC1=C(NCCO)C(=O)c2ccccc2C1=O" ?
inactive

Also "CC(C)C(=O)Oc1cc2c(=O)oc3c(OC(=O)C(C)C)c(OC(=O)C(C)C)cc4c(=O)oc(c1OC(=O)C(C)C)c2c34" ?
inactive

And then "CCOC(=O)NN(C(=O)OCC)c1ccc(/N=N/c2ccc(OC)cc2)n1C" , what is it?
inactive

Consider next the compound "COc1ccc(-c2oc3c(OC)c(OC)c(OC)c(O)c3c(=O)c2OC)cc1OC" in the same way.
inactive

Then O=C1CCC2(c3ccccc3)Nc3ccccc3N12 (stereo not drawn) ?
inactive

Ok, now "CCC1=C(C)/C(=C/c2[nH]c(C(Br)Br)c(CC)c2C)N=C1C(Br)Br"
inactive

// query: CCOC(=O)C1S/C(=N\c2cccc(Cl)c2C)N=C1C (stereo not drawn)
inactive

Again, but for "CCOP(=O)(OCC)/C(C#N)=C/c1ncc[nH]1"
inactive
